Origin of the recorded values: PubChem BioAssay (NCI)

# key: entry, value: TGI
Tested on: NCI-H23 lung
Procedure details: NCI tumour cell line growth inhibition, 48 h
Where a SMILES comes first, the peptide text is derived from it. [ ]: non-standard residue; d: D form. The star is where a group is joined. ξ: configuration not given here. ξD = NC(CC(=O)O)C(=O)O; Ac3c = NC1(C(=O)O)CC1; Boc = CC(C)(C)OC(=O)*; OBn = c1ccc(CO*)cc1

As a guide, the following entries are already answered.
q: Under NCI-H23 lung: TGI value of CCON=C1C(C)(C)C(C)(C)C(C)(C)C1(C)C ?
a: > 100 µM

q: Under NCI-H23 lung: TGI value of COC(=O)C1(NC(=O)C(CC(=O)OCc2ccccc2)NC(=O)OC(C)(C)C)CC1 (stereo not given) (Boc-[ξD](OBn)-[Ac3c]-OMe) ?
a: > 100 µM

q: Under NCI-H23 lung: TGI value of CS(=O)(=O)N(CCC#N)c1ccc(/C=N/NC(=O)CC(=O)Nc2cccc(Cl)c2)cc1 ?
a: > 100 µM

New cases:
q: Under NCI-H23 lung: TGI value of Nc1ccc(-c2nc3ccccc3[nH]2)c(O)c1 ?
a: 66.3 µM

q: Under NCI-H23 lung: TGI value of Cn1c(=O)c(Oc2cccc(F)c2)cc2cnc(NC3CCOCC3)nc21 ?
a: > 25 µM

* * *

Test system: KM12 colon
Procedure details: NCI tumour cell line growth inhibition, 48 h
Classification field: enter TRUE for TGI values not below 5 µM, FALSE for values below it.

A selection of reference data follows.
q: Hi team, for CCCn1c(=O)c2ccccc2[n+]2c(-c3ccc([N+](=O)[O-])cc3)csc12 , is the recorded TGI at or above 5 µM?
a: TRUE

q: Hi team, for CCOC(=O)c1cc2c(n1Cc1cc(OC)cc(OC)c1)-c1oncc1CCC2 , is the recorded TGI at or above 5 µM?
a: TRUE

q: Hi team, for CCON=C1C(C)(C)C(C)(C)C(C)(C)C1(C)C , is the recorded TGI at or above 5 µM?
a: TRUE

q: Hi team, for CC1=C(C(=O)Nc2ccc3[nH]ncc3c2)C(c2ccc(F)cc2)NC(=O)N1 (configuration not stated) , is the recorded TGI at or above 5 µM?
a: TRUE

q: Hi team, for CC(NC(=O)OCc1ccccc1)NC(=O)C(CC(=O)OC(C)(C)C)NC(=O)OC(C)(C)C (configuration not stated) , is the recorded TGI at or above 5 µM?
a: TRUE

q: Hi team, for NC(c1ccccc1)(C(F)(F)F)P1(=O)OC(=O)c2ccccc2O1 (configuration not stated) , is the recorded TGI at or above 5 µM?
a: TRUE

q: Hi team, for COc1ccccc1NC(=S)N/N=C(/C)c1ccccn1 , is the recorded TGI at or above 5 µM?
a: TRUE

q: Hi team, for CSc1ccc(-c2cc(-c3ccc(NC(=O)CCCN4CCCC4)cc3)nc(-c3ccc(NC(=O)CCCN4CCCC4)cc3)c2)cc1 , is the recorded TGI at or above 5 µM?
a: FALSE

New cases:
q: Hi team, for COc1cc2c(c(OC)c1OC)-c1ccc(NNC(=S)N(Cc3cccc(C[N+](Cc4cccc(CNC56CC7CC(CC(C7)C5)C6)c4)(Cc4cccc(CNC56CC7CC(CC(C7)C5)C6)c4)Cc4cccc(CN(C(=S)NNc5ccc6c(cc5=O)[C@@H](NC(C)=O)CCc5cc(OC)c(OC)c(OC)c5-6)C56CC7CC(CC(C7)C5)C6)c4)c3)C34CC5CC(CC(C5)C3)C4)c(=O)cc1[C@@H](NC(C)=O)CC2 (some centres not stated) , is the recorded TGI at or above 5 µM?
a: FALSE

q: Hi team, for O=C(c1ccccc1)c1c(C(F)(F)F)n([O-])c2cc(Cl)c(Cl)cc2[n+]1=O , is the recorded TGI at or above 5 µM?
a: FALSE

q: Hi team, for Cc1nccn1S(=O)(=O)c1ccc(Br)cc1Br , is the recorded TGI at or above 5 µM?
a: TRUE
